test system: MS2 coat protein; assay: apparent KD of MS2 coat protein; designed switch direction (-1 OFF switch, 1 ON switch): 1; higher = weaker reporter binding; details: input ligand: none
Would you please tag the item y when its apparent KD of MS2 coat protein is 300 nM or above, and n when it is below?

stdin: Is the recorded value of apparent KD of MS2 coat protein equal to or greater than 300 nM for this sequence? AUGAAGAAUUAAGGAUAUUGAUUACAUAUGUUUAACAUGAGGAUCACCCAUGUGGGUUGCGGUAUCGAGAAGGUAAAUUAAUAG [Mat - same State NG 2 - JL mod - D84] (Eterna round: R96, puzzle: Same State NG 2)
stdout: n

stdin: Is the recorded value of apparent KD of MS2 coat protein equal to or greater than 300 nM for this sequence? AAACACAUGAGGAUCACCCAUGUAGCACCAUUGAGGCGCACAUAGGAUAUCCGGUCCAAAAGACCGGAGAAGGGUGAAAGAAAA [Veandi] (Eterna round: R96, puzzle: Same State NG 3)
stdout: y

stdin: Is the recorded value of apparent KD of MS2 coat protein equal to or greater than 300 nM for this sequence? GUGGUCAGACAUGAGGAUCACCCAUGUGGAAUAAAUAAGGGACAGGAUAUCCAAUAUAGGAUAUAGGAGAAGGGUUGGUUGGUG (Eterna round: R96, puzzle: Same State NG 3)
stdout: n

stdin: Is the recorded value of apparent KD of MS2 coat protein equal to or greater than 300 nM for this sequence? UGUUUGUUGUGAGGAUAUACAUACACCUUACAUGAGGAUCACCCAUGUUGUUACCUUGAUAGUUAGUAGAAGGCACUUGGUUAU [JR_SSNG2_Sub046] (Eterna round: R96, puzzle: Same State NG 2)
stdout: n

stdin: Is the recorded value of apparent KD of MS2 coat protein equal to or greater than 300 nM for this sequence? CUGAGCGAUCAAGGAUAUCACGUCGAUUAGACGUGAGAAGGUGAUCAUAACAUGAGGAUCACCCAUGUAUUACAUGAAGCUCAG [SSNG1/2-A2] (Eterna round: R96, puzzle: Same State NG 1)
stdout: y
